The values you see were collected from paper PMC12320831.

molecular target: Recombinant human cathepsin L (hCatL) (Homo sapiens); construct: purchased R&D Systems 952-CY; experiment: Human cathepsin L inhibition assay (Z-FR-AMC substrate); format: biochemical; settings: mean of two experiments in triplicate (n = 6) ± SEM; read-out: IC50 hCatL
One threshold, 200 nM, splits the recorded IC50 values: lower ones are true (1), equal or higher ones are false (0).

- C/C(=N\Nc1nc(C)c[se]1)c1cccc([N+](=O)[O-])c1.Cl: false (0)
- C/C(=N\NC(N)=S)c1cccc([N+](=O)[O-])c1: true (1)
- C/C(=N\NC(N)=[Se])c1cccc([N+](=O)[O-])c1: true (1)
- C/C(=N\NC(N)=S)c1cccc(Cl)c1: true (1)
- C/C(=N\Nc1nc(C)c[se]1)c1cccc(Cl)c1.Cl: false (0)
- C/C(=N\NC(N)=[Se])c1ccc(Br)cc1: true (1)

* * *

target: Recombinant human cathepsin L (hCatL) (Homo sapiens, UniProt P07711); construct: purchased R&D Systems 952-CY; test: Human cathepsin L inhibition assay (Z-FR-AMC substrate); assay type: biochemical; conditions: no DRC performed; bound from the screen at 10 µM; read-out: IC50 hCatL
Sequence (P07711 114-333): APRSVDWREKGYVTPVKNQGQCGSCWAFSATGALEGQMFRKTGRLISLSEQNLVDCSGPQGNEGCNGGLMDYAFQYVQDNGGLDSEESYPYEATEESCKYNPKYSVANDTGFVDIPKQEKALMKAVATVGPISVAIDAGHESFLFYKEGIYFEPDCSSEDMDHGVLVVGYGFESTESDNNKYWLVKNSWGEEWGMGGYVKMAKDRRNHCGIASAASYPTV
pIC50: −log10 of the molar value.
The entries below are paired with their reported pIC50.
Observed Property: pIC50

• C/C(=N\Nc1nc(C)cs1)c1cccc(Cl)c1 [Compound S2i] = < 5.00
• C/C(=N\Nc1nc(C)cs1)c1cccc([N+](=O)[O-])c1 [Compound S2h] = < 5.00

* * *

The entries below are paired with their reported viability at 48 h, 10 µM.
test: Host cell cytotoxicity (C2C12 viability); format: cell-based, Mouse; conditions: mouse; 10 µM; < 50% viability considered cytotoxic
Observed Property: viability at 48 h, 10 µM (%)

- C/C(=N\NC(N)=[Se])c1csc2ccccc12: 31.4
- C/C(=N\NC(N)=[Se])c1ccsc1: 38.1
- C/C(=N\NC(N)=[Se])c1cc2ccccc2o1: 39.4
- C/C(=N\NC(N)=[Se])C12CC3CC(CC(C3)C1)C2: 78.6
- COc1ccc(/C(C)=N/NC(N)=[Se])cc1: 40.9
- C/C(=N\NC(N)=[Se])c1cccc([N+](=O)[O-])c1: 97.3
- C/C(=N\Nc1nc(C)c[se]1)c1ccc(C(F)(F)F)cc1: 96.1

* * *

target: recombinant Cz (cruzain) (Trypanosoma cruzi, UniProt P25779); construct: Cz was expressed and purified as described in da Silva et al; made in house; test: biochemical; conditions: read-out: Cz inhibition (%), 10 µM
Sequence (P25779 123-337 limits assumed): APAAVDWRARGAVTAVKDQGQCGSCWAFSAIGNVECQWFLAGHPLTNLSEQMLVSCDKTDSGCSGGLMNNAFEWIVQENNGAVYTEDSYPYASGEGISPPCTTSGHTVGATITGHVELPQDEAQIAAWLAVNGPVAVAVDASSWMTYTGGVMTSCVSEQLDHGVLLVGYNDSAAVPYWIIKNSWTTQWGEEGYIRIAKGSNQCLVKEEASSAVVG
Assign class by inhibition at 10 µM: not lower than 80% means 1 (yes); lower than 80% means 0 (no).

• C/C(=N\Nc1nc(C)cs1)c1cc2ccccc2o1 [Compound S2p] = 0 (no)
• COc1ccc(/C(C)=N/Nc2nc(C)c[se]2)cc1 [Se2b] = 0 (no)
• C/C(=N\NC(N)=S)c1csc2ccccc12 [Compound S1o] = 1 (yes)
• C/C(=N\NC(N)=S)c1ccc(Br)cc1 [Compound S1f] = 1 (yes)
• C/C(=N\NC(N)=[Se])C12CC3CC(CC(C3)C1)C2 [Se1q] = 1 (yes)
• C/C(=N\NC(N)=[Se])c1ccc(C)cc1 [Se1a] = 1 (yes)

* * *

assay: Host cell cytotoxicity (C2C12 viability); assay type: cell-based, Mouse; settings: mouse; 10 µM; < 50% viability considered cytotoxic
Observed Property: viability at 48 h, 10 µM (%)

• C/C(=N\NC(N)=[Se])c1ccc(F)c(F)c1 = 27.7
• COc1cccc(/C(C)=N/NC(N)=[Se])c1 = 31.1
• C/C(=N\Nc1nc(C)c[se]1)c1ccc(C)cc1 = 91.9
• COc1ccc(/C(C)=N/NC(N)=[Se])c(OC)c1 = 43.7
• C/C(=N\Nc1nc(C)c[se]1)c1ccc(F)c(F)c1 = 38.3
• COc1ccc(/C(C)=N/Nc2nc(C)c[se]2)cc1 = 94
• C/C(=N\Nc1nc(C)c[se]1)c1ccc(Br)cc1 = 87.7
• C/C(=N\NC(N)=[Se])c1ccc(C)cc1 = 34.1

* * *

experiment: Snapshot pharmacokinetic study in mice; assay type: in vivo, Balb/c mice; conditions: female, Balb/c, mouse, plasma, 50 mg/kg oral vs 5 mg/kg intravenous
Observed Property: bioavailability (%)

• C/C(=N\Nc1nc(C)c[se]1)c1cccc([N+](=O)[O-])c1.Cl [Se2h] = 82

* * *

The entries below are paired with their reported inhibition at 10 µM.
molecular target: Recombinant human cathepsin L (hCatL) (Homo sapiens); construct: purchased R&D Systems 952-CY; assay: Human cathepsin L inhibition assay (Z-FR-AMC substrate); format: biochemical; details: 10 µM
Observed Property: inhibition at 10 µM (%)

- C/C(=N\NC(N)=[Se])c1ccc(Br)cc1: 97.3
- C/C(=N\Nc1nc(C)cs1)c1cccc([N+](=O)[O-])c1: 12.1
- C/C(=N\Nc1nc(C)c[se]1)c1cccc([N+](=O)[O-])c1.Cl: 92.2
- C/C(=N\NC(N)=S)c1cccc([N+](=O)[O-])c1: 94.5
- C/C(=N\NC(N)=S)c1cccc(Cl)c1: 97.2
- C/C(=N\Nc1nc(C)c[se]1)c1cccc(Cl)c1.Cl: 98
- C/C(=N\Nc1nc(C)cs1)c1cccc(Cl)c1: 24.7
- C/C(=N\NC(N)=[Se])c1cccc([N+](=O)[O-])c1: 98.7

* * *

test: Snapshot pharmacokinetic study in mice; assay type: in vivo, Balb/c mice; conditions: female, Balb/c, mouse, plasma, other: intravenous and oral, 5 mg/kg intravenous and 50 mg/kg oral, read-out: half-life (T 1/2)
Observed Property: half-life

• C/C(=N\Nc1nc(C)c[se]1)c1cccc([N+](=O)[O-])c1.Cl [Se2h] = < 1 h

* * *

Molecular target: recombinant Cz (cruzain) (Trypanosoma cruzi)
Construct: Cz was expressed and purified as described in da Silva et al; made in house
Experiment: biochemical
Conditions: ratio between IC50 hCatL and IC50 Cz
Procedure: The screening assay was performed using 1 nM of Cz diluted in 0.1 M sodium acetate pH 5.5, 1 mM dithiothreitol (DTT), and 0.01% Triton X-100. […] All experiments were accomplished in a 384-well black microplate, using a Synergy HTX (Biotek) plate reader at 25 °C with absorption/emission wavelengths of 360/460 nm. […] Enzymatic activity was measured and normalized to DMSO controls, and the inhibitor E-64 (10 μM) was used as a positive control for all assays. […]
The entries below are paired with their reported SICz.
Observed Property: SICz

* C/C(=N\NC(N)=[Se])c1ccc(Br)cc1 [Se1f] | 7.42
* CN1CCN(C(=O)N[C@@H](Cc2ccccc2)C(=O)N[C@H](/C=C/S(=O)(=O)c2ccccc2)CCc2ccccc2)CC1 [Compound K777, reference compound] | 0.13
* C/C(=N\NC(N)=[Se])c1cccc([N+](=O)[O-])c1 [Se1h] | 10.22
* C/C(=N\NC(N)=S)c1cccc(Cl)c1 [Compound S1i] | 35.76
* C/C(=N\Nc1nc(C)c[se]1)c1cccc(Cl)c1.Cl [Se2i] | 5.55
* C/C(=N\NC(N)=S)c1cccc([N+](=O)[O-])c1 [Compound S1h] | 164.83
* C/C(=N\Nc1nc(C)c[se]1)c1cccc([N+](=O)[O-])c1.Cl [Se2h] | 148.83

* * *

Target: recombinant Cz (cruzain) (Trypanosoma cruzi, UniProt P25779)
Construct: Cz was expressed and purified as described in da Silva et al; made in house
Experiment: biochemical
Conditions: mean of two experiments in triplicate (n = 6) ± SEM; read-out: IC50 Cz
Description: The screening assay was performed using 1 nM of Cz diluted in 0.1 M sodium acetate pH 5.5, 1 mM dithiothreitol (DTT), and 0.01% Triton X-100. […] All experiments were accomplished in a 384-well black microplate, using a Synergy HTX (Biotek) plate reader at 25 °C with absorption/emission wavelengths of 360/460 nm. […] Enzymatic activity was measured and normalized to DMSO controls, and the inhibitor E-64 (10 μM) was used as a positive control for all assays. […]
The entries below are paired with their reported IC50.
Observed Property: IC50 (µM)

* C/C(=N\NC(N)=[Se])c1ccc(Br)cc1 [Se1f] | 0.0143
* C/C(=N\Nc1nc(C)c[se]1)c1cccc([N+](=O)[O-])c1.Cl [Se2h] | 0.00899
* C/C(=N\Nc1nc(C)cs1)c1cccc([N+](=O)[O-])c1 [Compound S2h] | 1.28
* C/C(=N\NC(N)=S)c1cccc([N+](=O)[O-])c1 [Compound S1h] | 0.00115
* C/C(=N\NC(N)=S)c1cccc(Cl)c1 [Compound S1i] | 0.0025
* C/C(=N\Nc1nc(C)cs1)c1cccc(Cl)c1 [Compound S2i] | 0.142
* C/C(=N\Nc1nc(C)c[se]1)c1cccc(Cl)c1.Cl [Se2i] | 0.0817
